Examples of compounds with documented IC50 follow.
- target desc: FGFR3 (Homo sapiens, UniProt P22607)
- Construct: Enzymes (from Upstate) were prepared at 2× final concentration in 1× kinase assay buffer; purchased Upstate
- Sequence (P22607 23-806): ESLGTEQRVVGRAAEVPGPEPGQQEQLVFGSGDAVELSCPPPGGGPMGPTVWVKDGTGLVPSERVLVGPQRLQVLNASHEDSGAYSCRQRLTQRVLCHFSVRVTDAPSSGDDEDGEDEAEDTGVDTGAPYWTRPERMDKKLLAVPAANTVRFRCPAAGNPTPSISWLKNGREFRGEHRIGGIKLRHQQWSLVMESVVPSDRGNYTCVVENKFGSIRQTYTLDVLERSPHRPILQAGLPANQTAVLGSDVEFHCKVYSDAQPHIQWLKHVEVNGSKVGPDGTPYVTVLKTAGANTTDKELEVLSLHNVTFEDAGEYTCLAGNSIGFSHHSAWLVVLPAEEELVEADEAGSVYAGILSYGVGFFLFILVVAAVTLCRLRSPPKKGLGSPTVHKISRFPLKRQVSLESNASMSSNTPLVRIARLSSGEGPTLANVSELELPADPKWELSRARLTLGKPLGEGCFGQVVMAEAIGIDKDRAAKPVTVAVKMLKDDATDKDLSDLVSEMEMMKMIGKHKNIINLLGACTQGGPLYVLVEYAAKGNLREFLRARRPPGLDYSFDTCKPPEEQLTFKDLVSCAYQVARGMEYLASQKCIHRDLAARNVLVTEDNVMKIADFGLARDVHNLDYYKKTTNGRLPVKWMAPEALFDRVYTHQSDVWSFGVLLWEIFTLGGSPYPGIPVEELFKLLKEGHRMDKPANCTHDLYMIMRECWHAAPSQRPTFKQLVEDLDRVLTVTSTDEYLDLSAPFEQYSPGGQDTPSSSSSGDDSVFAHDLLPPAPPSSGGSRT
- method summary: FGFR3 in vitro kinase inhibitory activity assay (TRF)
- Assay type: biochemical
- run parameters: in vitro kinase assay, 8 μM ATP; read-out: FGFR3 IC50
Where a name gives a salt, the structure may show the parent alone.
Supply the numeric figure in nM, leaving out any unit text.

For record "Fc1ccc(-c2ccn3c(-c4cccc(Nc5nncs5)c4)cnc3c2)cc1" the listed IC50 is 2.2

For record Cn1ccnc1Nc1cccc(-c2cnc3cc(-c4ccc(F)cc4)ccn23)c1 [Example 34, Hydrochloride] the listed IC50 is 480

For record "Cn1cc(-c2ccn3c(-c4cccc(Nc5nncs5)c4)cnc3c2)cn1" the listed IC50 is 16

For record "Fc1ccc(-c2ccn3c(-c4cccc(Nc5nnco5)c4)cnc3c2)cc1" the listed IC50 is 11

For record "Fc1ccc(-c2ccn3c(-c4cccc(Nc5ncns5)c4)cnc3c2)cc1" the listed IC50 is 115

For record Nc1ccc(-c2cnc3c(-c4cccc(Nc5nncs5)c4)cnn3c2)cn1 [Example 11, hydrochloride salt] the listed IC50 is 6.03

API: the following record is the query input.
For record "Nc1nc(Nc2cccc(-c3cnc4cc(-c5ccc(F)cc5)ccn34)c2)n[nH]1" the listed IC50 is 130

Data provenance is patent US8513276B2.
